Blocking of ATPase activity on cell surface (293T/17-cyno CD39, CellTiter Glo): Bottom listing for selected binders.
Biological target: T1, cyno CD39 on the cell surface (293T/17-cyno CD39 cells) (cyno, UniProt P49961 7-510 (human entry))
T1 chain: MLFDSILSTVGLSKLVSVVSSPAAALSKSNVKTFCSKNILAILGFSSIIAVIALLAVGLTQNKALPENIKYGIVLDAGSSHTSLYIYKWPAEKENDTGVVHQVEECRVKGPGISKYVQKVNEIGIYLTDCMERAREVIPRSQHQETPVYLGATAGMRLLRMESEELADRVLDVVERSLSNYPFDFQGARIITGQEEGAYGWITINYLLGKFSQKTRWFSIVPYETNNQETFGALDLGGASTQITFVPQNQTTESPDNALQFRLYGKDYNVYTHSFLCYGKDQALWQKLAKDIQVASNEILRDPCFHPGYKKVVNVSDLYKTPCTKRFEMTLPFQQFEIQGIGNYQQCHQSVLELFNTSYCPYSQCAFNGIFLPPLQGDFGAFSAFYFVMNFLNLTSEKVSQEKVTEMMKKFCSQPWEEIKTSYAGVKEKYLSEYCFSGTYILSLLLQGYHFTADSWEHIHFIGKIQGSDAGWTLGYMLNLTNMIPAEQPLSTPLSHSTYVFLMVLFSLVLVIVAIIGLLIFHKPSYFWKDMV
Test: cell-based or functional assay
Please respond with just the number, no unit label.

Worked cases, Blocking of ATPase activity on cell surface (293T/17-cyno CD39, CellTiter Glo): Bottom given:
201 hIgG2 (antibody, V domains shown, Chimeric antibody: mouse Fv fused to the human IgG2 constant region, expressed in 293F cells; also called chimeric antibody 201) VH: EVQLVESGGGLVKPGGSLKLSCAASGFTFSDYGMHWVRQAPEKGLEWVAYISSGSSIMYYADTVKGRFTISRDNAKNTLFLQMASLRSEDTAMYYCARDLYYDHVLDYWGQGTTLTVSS VL: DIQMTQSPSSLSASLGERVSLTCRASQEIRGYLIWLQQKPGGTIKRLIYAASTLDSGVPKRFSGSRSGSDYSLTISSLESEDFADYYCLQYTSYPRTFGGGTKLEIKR: 42300
216 hIgG2 (antibody, V domains shown, Chimeric antibody: mouse Fv fused to the human IgG2 constant region; also called chimeric antibody 216) VH: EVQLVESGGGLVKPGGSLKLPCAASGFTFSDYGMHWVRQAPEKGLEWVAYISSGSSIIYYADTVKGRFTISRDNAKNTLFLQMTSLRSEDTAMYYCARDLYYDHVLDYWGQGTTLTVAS VL: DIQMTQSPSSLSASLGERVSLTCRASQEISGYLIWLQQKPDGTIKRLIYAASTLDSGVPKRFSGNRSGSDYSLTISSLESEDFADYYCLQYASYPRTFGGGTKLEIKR: 55600

*Q* Which measured Blocking of ATPase activity on cell surface (293T/17-cyno CD39, CellTiter Glo): Bottom value corresponds to 217 hIgG2 (antibody, V domains shown, Chimeric antibody: mouse Fv fused to the human IgG2 constant region) VH: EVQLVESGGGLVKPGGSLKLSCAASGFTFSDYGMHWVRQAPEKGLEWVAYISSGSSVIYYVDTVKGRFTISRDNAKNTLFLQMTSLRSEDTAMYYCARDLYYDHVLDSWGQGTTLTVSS VL: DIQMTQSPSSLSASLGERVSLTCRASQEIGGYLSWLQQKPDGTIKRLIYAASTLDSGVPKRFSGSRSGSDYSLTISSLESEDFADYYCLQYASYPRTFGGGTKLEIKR ?
*A* 42200
